Biological target: phosphorylated ERBB2 (pERBB2) (Homo sapiens, UniProt P04626)
Construct: endogenous in cells
Sequence (P04626 23-1255): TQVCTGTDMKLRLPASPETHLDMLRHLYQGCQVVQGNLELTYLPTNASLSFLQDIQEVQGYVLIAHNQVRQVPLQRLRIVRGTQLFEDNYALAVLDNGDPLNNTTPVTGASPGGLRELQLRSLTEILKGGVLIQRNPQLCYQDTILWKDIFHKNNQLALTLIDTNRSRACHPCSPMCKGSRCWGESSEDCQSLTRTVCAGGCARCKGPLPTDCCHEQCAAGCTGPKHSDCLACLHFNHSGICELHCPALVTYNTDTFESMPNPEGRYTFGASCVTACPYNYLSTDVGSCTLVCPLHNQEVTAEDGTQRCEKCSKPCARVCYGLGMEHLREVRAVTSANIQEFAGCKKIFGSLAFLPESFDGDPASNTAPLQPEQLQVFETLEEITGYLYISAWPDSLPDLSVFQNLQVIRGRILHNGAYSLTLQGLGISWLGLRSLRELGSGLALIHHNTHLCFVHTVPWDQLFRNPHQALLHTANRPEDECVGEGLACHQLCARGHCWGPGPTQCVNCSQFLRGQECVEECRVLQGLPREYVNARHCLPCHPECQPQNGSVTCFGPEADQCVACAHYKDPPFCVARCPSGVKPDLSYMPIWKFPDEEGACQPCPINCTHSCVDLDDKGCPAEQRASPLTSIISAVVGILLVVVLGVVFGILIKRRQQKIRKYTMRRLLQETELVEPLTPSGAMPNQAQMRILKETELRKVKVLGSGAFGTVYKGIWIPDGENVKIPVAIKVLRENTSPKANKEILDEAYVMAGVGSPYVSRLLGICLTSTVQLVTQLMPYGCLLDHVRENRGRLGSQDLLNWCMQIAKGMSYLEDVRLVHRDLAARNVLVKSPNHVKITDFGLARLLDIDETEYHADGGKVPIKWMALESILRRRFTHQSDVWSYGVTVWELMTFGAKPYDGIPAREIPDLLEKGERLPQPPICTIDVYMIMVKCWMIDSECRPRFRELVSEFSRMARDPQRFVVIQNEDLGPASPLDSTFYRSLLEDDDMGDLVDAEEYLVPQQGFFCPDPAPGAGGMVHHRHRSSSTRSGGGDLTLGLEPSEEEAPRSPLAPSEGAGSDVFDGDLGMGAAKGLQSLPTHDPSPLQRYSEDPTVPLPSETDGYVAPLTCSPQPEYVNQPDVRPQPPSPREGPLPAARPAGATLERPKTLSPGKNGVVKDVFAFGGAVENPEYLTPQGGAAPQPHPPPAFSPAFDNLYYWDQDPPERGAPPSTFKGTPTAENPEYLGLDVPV
Test: Detection of phosphorylated ERBB2 (pERBB2) by ELISA in BT-474 cells
Conditions: four hour incubation with compound
Method: BT-474 cells were seeded into a 96-well at 2.0*10^4 cells/100 μl/well. Compounds were dissolved and serially diluted in DMSO. The compounds were then were added, mixed, and incubated for four hours at 37° C., 5% CO2. Compounds were added using four-fold dilutions at final concentrations ranging from 10 μM to 0.01 nM. […] Optical density at 450 nm was read on an EnSpire plate reader (Perkin Elmer). The remaining kinase activity by calculated using the following formula: % Relative activity=100×([…]). […]
pIC50: −log10 of the molar value.

compound: C=CC(=O)N1CCN(c2ccc3ncnc(Nc4ccc(Oc5ccn6ncnc6c5)c(C)c4)c3c2F)C[C@H]1C
pIC50: 7.67
//
compound: C=CC(=O)N1CCN(c2ccc3ncnc(Nc4ccc(CN5CCn6ncnc6C5)c(C)c4)c3c2)CC1
pIC50: 7.00
//
compound: C=CC(=O)N1CCN(c2ccc3ncnc(Nc4ccc(Oc5ccc6c(c5)ncn6C)c(C)c4)c3c2F)C[C@H]1C
pIC50: 7.41
//
compound: C=CC(=O)N1CCN(c2ccc3ncnc(Nc4ccc(Cc5ccn6ncnc6c5)c(C)c4)c3n2)CC1(C)C
pIC50: 7.52
//
compound: C=CC(=O)N1CCN(c2cc3c(Nc4ccc(CN5CCn6ncnc6C5)c(C)c4)ncnc3cn2)CC1
pIC50: 6.64
//
compound: C=CC(=O)N1CCN(c2ccc3ncnc(Nc4ccc(Oc5ccn6ncnc6c5)c(C)c4)c3n2)CC1
pIC50: 8.07
//
compound: C=CC(=O)N1CCN(c2ccc3ncnc(Nc4ccc(Cc5ccn6ncnc6c5)c(C)c4)c3n2)CC12CC2
pIC50: 7.67
//
compound: C=CC(=O)N1CCN(c2cc3c(Nc4ccc(Oc5ccn6ncnc6c5)c(C)c4)ncnc3cn2)CC1
pIC50: 7.99
//
compound: C=CC(=O)N1CCC2(CCN(c3ccc4ncnc(Nc5ccc(Oc6ccn7ncnc7c6)c(C)c5)c4n3)C2)C1 (stereo not drawn)
pIC50: 7.42
//
compound: C=CC(=O)N1CCN(c2ccc3ncnc(Nc4ccc(Cc5ccn6ncnc6c5)c(C)c4)c3c2F)C[C@H]1C
pIC50: 7.33
//
compound: CC#CC(=O)N1C2CCC1CN(c1ccc3ncnc(Nc4ccc(Oc5ccn6ncnc6c5)c(C)c4)c3n1)C2
pIC50: 7.22
//
compound: C=CC(=O)N1CCN(c2ccc3ncnc(Nc4ccc(Oc5ccc6c(c5)ncn6C)c(C)c4)c3n2)C[C@H]1C
pIC50: 7.48
//
compound: CC#CC(=O)N1CCN(c2ccc3ncnc(Nc4ccc(Oc5ccn6ncnc6c5)c(C)c4)c3n2)[C@H](C)C1
pIC50: 7.04
//
compound: C=CC(=O)N1CC[C@H](Oc2ccc3ncnc(Nc4ccc(Oc5ccc6c(c5)ncn6C)c(C)c4)c3n2)C1
pIC50: 7.24
//
compound: C=CC(=O)N1CCN(c2ncc3ncnc(Nc4ccc(Oc5ccc6c(c5)ncn6C)c(C)c4)c3n2)C[C@H]1C
pIC50: 7.59

---

Target: Ba/F3 ERBB2 YVMA (Homo sapiens, UniProt P04626, DUP772-775, cells depend on it)
Sequence (P04626 with tags, fused parts or gaps DUP772-775): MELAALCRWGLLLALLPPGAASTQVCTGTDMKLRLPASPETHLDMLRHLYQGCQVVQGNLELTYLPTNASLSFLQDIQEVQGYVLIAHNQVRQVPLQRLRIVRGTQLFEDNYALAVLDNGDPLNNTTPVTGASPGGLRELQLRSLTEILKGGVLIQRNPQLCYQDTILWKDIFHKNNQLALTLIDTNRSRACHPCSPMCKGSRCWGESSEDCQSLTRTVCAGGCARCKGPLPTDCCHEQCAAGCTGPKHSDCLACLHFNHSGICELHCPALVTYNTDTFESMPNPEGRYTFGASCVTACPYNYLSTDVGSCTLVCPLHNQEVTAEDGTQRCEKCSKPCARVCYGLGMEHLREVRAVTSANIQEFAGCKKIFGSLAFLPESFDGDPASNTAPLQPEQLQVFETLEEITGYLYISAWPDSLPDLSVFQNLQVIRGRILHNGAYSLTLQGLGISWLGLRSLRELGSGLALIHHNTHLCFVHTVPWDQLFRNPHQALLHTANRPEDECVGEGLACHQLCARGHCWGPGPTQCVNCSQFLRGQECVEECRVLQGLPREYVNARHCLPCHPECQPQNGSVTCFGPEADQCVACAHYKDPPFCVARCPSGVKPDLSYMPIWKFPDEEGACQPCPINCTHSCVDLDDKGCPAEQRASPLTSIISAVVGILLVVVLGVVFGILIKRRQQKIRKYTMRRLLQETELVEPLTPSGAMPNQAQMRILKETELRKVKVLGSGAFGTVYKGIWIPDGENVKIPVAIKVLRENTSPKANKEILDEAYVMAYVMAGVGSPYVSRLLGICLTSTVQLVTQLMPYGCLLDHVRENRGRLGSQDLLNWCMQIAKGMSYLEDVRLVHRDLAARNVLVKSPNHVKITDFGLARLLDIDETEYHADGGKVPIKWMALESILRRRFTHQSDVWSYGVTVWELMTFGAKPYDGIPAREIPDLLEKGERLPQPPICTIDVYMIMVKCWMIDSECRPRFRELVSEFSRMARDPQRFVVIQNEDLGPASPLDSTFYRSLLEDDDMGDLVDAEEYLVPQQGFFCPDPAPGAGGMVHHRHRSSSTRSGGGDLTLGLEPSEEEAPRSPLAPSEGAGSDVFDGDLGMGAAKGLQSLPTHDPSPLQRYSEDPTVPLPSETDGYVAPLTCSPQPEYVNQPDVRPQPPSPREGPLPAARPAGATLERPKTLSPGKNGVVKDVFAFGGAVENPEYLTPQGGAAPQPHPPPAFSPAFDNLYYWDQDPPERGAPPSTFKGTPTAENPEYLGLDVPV
Test: Cell viability assay (CellTiter Glo) in Ba/F3 cells engineered to express ERBB2 YVMA
Assay type: cell-based, mouse
Details: Ba/F3 cells expressing human ERBB2 YVMA mutant, 72 hours, % viability, read-out: Ba/F3 ERBB2 YVMA IC50

compound: C=CC(=O)N1CCN(c2ccc3ncnc(Nc4ccc(Oc5ccn6ncnc6c5)c(C)c4)c3n2)[C@H](C)C1 [Compound 11]
target-system: Ba/F3 ERBB2 YVMA (Homo sapiens, UniProt P04626, DUP772-775, cells depend on it)
units-text: nM
rel: =
GI50: 17.9
--
compound: C=CC(=O)N1[C@H](C)CN(c2ccc3ncnc(Nc4ccc(Oc5ccn6ncnc6c5)c(C)c4)c3n2)C[C@H]1C [Compound 61]
target-system: Ba/F3 ERBB2 YVMA (Homo sapiens, UniProt P04626, DUP772-775, cells depend on it)
units-text: nM
rel: >
GI50: 500
--
compound: Cc1cc(Nc2ncnc3ccc(NC4=NC(C)(C)CO4)cc23)ccc1Oc1ccn2ncnc2c1 [Tucatinib, tucatinib, reference compound]
target-system: Ba/F3 ERBB2 YVMA (Homo sapiens, UniProt P04626, DUP772-775, cells depend on it)
units-text: nM
rel: =
GI50: 356
--
compound: C=CC(=O)N1CCN(c2ccc3ncnc(Nc4ccc(Cc5ccn6ncnc6c5)c(C)c4)c3n2)[C@@H](C)C1 [Compound 66]
target-system: Ba/F3 ERBB2 YVMA (Homo sapiens, UniProt P04626, DUP772-775, cells depend on it)
units-text: nM
rel: =
GI50: 12.5

---

Target: phosphorylated EGFR (pEGFR) (Homo sapiens)
Construct: performed to measure phosphorylated EGFR levels using A431 cells; endogenous in cells
Test: Detection of phosphorylated EGFR (pEGFR) in EGF-stimulated A431 cells (AlphaLISA)
Details: A431 cells (10% FBS), 4 hours incubation, EGF 30 ng/mL for 10 minutes
endpoint: IC50 (nM)

molecular-string: C=CC(=O)N1CCN(c2ccc3ncnc(Nc4ccc(Oc5ccc6c(c5)ncn6C)c(C)c4)c3c2F)C[C@H]1C
endpoint: IC50
rel: =
readout-value: 2520

molecular-string: C=CC(=O)N1CCN(c2ncc3ncnc(Nc4ccc(Cc5ccc6c(c5)ncn6C)c(C)c4)c3n2)C[C@H]1C
endpoint: IC50
rel: =
readout-value: 7290

molecular-string: C=CC(=O)N1CC[C@H](Nc2ccc3ncnc(Nc4ccc(Oc5ccn6ncnc6c5)c(C)c4)c3n2)C1
endpoint: IC50
rel: =
readout-value: 61.2

molecular-string: CC#CC(=O)N1CCN(c2ccc3ncnc(Nc4ccc(Oc5ccn6ncnc6c5)c(C)c4)c3n2)C[C@@H]1C
endpoint: IC50
rel: >
readout-value: 10000

---

Target: phosphorylated EGFR (pEGFR) (Homo sapiens, UniProt P00533)
Construct: performed to measure phosphorylated EGFR levels using A431 cells; endogenous in cells
Sequence (P00533 25-1210): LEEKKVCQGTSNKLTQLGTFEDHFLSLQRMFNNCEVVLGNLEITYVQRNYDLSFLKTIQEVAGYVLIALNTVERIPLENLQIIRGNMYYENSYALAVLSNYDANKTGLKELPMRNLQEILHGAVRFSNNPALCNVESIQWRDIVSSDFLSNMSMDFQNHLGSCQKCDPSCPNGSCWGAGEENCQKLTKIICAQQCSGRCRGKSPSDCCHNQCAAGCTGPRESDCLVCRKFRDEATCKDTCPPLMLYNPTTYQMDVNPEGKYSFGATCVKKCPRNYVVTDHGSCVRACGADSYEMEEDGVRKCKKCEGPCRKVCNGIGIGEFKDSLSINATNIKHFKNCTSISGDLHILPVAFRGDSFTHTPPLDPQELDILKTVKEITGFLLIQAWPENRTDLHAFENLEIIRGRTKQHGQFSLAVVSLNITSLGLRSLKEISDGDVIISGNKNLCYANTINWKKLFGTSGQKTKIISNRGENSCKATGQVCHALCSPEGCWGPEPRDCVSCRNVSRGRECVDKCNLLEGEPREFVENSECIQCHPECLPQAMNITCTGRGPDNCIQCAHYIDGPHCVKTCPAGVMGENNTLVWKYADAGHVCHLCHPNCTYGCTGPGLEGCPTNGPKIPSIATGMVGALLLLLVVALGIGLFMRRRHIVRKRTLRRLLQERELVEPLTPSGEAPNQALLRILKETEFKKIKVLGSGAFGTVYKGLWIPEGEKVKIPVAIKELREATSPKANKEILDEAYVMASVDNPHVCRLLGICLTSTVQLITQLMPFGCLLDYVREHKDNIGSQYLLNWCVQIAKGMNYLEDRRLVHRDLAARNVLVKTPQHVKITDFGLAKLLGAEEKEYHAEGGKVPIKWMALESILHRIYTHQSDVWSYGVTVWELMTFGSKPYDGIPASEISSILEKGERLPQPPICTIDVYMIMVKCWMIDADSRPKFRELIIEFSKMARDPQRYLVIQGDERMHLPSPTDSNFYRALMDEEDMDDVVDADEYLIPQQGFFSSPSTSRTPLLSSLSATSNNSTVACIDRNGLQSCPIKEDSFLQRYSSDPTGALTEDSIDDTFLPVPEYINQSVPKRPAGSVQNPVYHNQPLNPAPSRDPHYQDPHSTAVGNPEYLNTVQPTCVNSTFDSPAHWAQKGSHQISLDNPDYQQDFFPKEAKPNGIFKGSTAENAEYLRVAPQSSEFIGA
Experiment: Detection of phosphorylated EGFR (pEGFR) in EGF-stimulated A431 cells (AlphaLISA)
Details: A431 cells (10% FBS), 4 hours incubation, EGF 30 ng/mL for 10 minutes

molecular-string: C=CC(=O)N1CCC[C@@H](Nc2ccc3ncnc(Nc4ccc(Oc5ccn6ncnc6c5)c(C)c4)c3n2)C1
rel: >
IC50 (nM): 10000
--
molecular-string: C=CC(=O)N1CCN(c2ccc3ncnc(Nc4ccc(Oc5ccc6c(c5)ncn6C)c(C)c4)c3c2)C[C@H]1C
rel: =
IC50 (nM): 2460
--
molecular-string: C=CC(=O)N1CCC(Nc2ccc3ncnc(Nc4ccc(Oc5ccn6ncnc6c5)c(C)c4)c3n2)CC1
rel: =
IC50 (nM): 22
--
molecular-string: C=CC(=O)N1CCN(c2cc3c(Nc4ccc(O[C@@H]5CCCOC5)c(C)c4)ncnc3cn2)CC1
rel: =
IC50 (nM): 337
--
molecular-string: C=CC(=O)N1C2CCC1CN(c1ccc3ncnc(Nc4ccc(Cc5ccc6c(c5)ncn6C)c(C)c4)c3n1)C2
rel: =
IC50 (nM): 1270
--
molecular-string: C=CC(=O)N1CCN(c2cc3c(Nc4ccc(Oc5ccn6ncnc6c5)c(C)c4)ncnc3cn2)C[C@H]1C
rel: =
IC50 (nM): 2580
--
molecular-string: C=CC(=O)N1CCN(c2ccc3ncnc(Nc4ccc(Oc5ccn6ncnc6c5)c(C)c4)c3n2)C[C@@H]1C
rel: =
IC50 (nM): 1030
--
molecular-string: C=CC(=O)N1CCN(c2ncc3ncnc(Nc4ccc(Oc5ccn6ncnc6c5)c(C)c4)c3n2)C[C@H]1C
rel: =
IC50 (nM): 1050

---

Target: Ba/F3 ERBB2 YVMA (Homo sapiens, UniProt P04626, DUP772-775, cells depend on it)
Test: Cell viability assay (CellTiter Glo) in Ba/F3 cells engineered to express ERBB2 YVMA
Type: cell-based, mouse
Settings: Ba/F3 cells expressing human ERBB2 YVMA mutant, 72 hours, % viability, read-out: Ba/F3 ERBB2 YVMA IC50
Structures can show the parent of a compound that is named as a salt.
Label key: condition met means GI50 under 30 nM; condition not met means GI50 of 30 nM or more.

compound: C=CC(=O)N1CCN(c2ccc3ncnc(Nc4ccc(Oc5ccc6c(c5)ncn6C)c(C)c4)c3c2)CC1 [Compound 88]
target-system: Ba/F3 ERBB2 YVMA (Homo sapiens, UniProt P04626, DUP772-775, cells depend on it)
class: condition met
//
compound: C=CC(=O)N1CCN(c2ccc3ncnc(Nc4ccc(Oc5ccc6scnc6c5)c(C)c4)c3n2)CC1 [Compound 119]
target-system: Ba/F3 ERBB2 YVMA (Homo sapiens, UniProt P04626, DUP772-775, cells depend on it)
class: condition met
//
compound: CC#CC(=O)N1CCN(c2cc3c(Nc4ccc(Oc5ccc6c(c5)ncn6C)c(C)c4)ncnc3cn2)C[C@H]1C [Compound 71]
target-system: Ba/F3 ERBB2 YVMA (Homo sapiens, UniProt P04626, DUP772-775, cells depend on it)
class: condition met
//
compound: CC#CC(=O)N1C2CC1CN(c1ccc3ncnc(Nc4ccc(Oc5ccn6ncnc6c5)c(C)c4)c3n1)C2 [Compound 29]
target-system: Ba/F3 ERBB2 YVMA (Homo sapiens, UniProt P04626, DUP772-775, cells depend on it)
class: condition not met
//
compound: Cc1cc(Nc2ncnc3cnc(N4CCN(C(=O)/C=C/CN(C)C)[C@H](C)C4)nc23)ccc1Cc1ccn2ncnc2c1 [Compound 122]
target-system: Ba/F3 ERBB2 YVMA (Homo sapiens, UniProt P04626, DUP772-775, cells depend on it)
class: condition not met
//
compound: C=C(F)C(=O)N1CCN(c2ccc3ncnc(Nc4ccc(Oc5ccn6ncnc6c5)c(C)c4)c3n2)CC1 [Compound 13]
target-system: Ba/F3 ERBB2 YVMA (Homo sapiens, UniProt P04626, DUP772-775, cells depend on it)
class: condition not met
//
compound: C=CC(=O)N1CCN(c2ccc3ncnc(Nc4ccc(Oc5ccn6ncnc6c5)c(C)c4)c3c2)C[C@H]1C [Compound 35]
target-system: Ba/F3 ERBB2 YVMA (Homo sapiens, UniProt P04626, DUP772-775, cells depend on it)
class: condition met
//
compound: Cc1cc(Nc2ncnc3ccc(N4CCN(C(=O)/C=C/CN(C)C)[C@H](C)C4)c(F)c23)ccc1Cc1ccn2ncnc2c1 [Compound 93, formate]
target-system: Ba/F3 ERBB2 YVMA (Homo sapiens, UniProt P04626, DUP772-775, cells depend on it)
class: condition not met
//
compound: C=CC(=O)N1C2CCC1CN(c1ccc3ncnc(Nc4ccc(Cc5ccn6ncnc6c5)c(C)c4)c3n1)C2 [Compound 127]
target-system: Ba/F3 ERBB2 YVMA (Homo sapiens, UniProt P04626, DUP772-775, cells depend on it)
class: condition met
//
compound: C=CC(=O)N1CCN(c2cc3c(Nc4ccc(Oc5ccn6ncnc6c5)c(C)c4)ncnc3cn2)C[C@H]1C [Compound 55]
target-system: Ba/F3 ERBB2 YVMA (Homo sapiens, UniProt P04626, DUP772-775, cells depend on it)
class: condition met
//
compound: C=CC(=O)N1CC2CC(C1)N2c1ccc2ncnc(Nc3ccc(Oc4ccn5ncnc5c4)c(C)c3)c2n1 [Compound 5]
target-system: Ba/F3 ERBB2 YVMA (Homo sapiens, UniProt P04626, DUP772-775, cells depend on it)
class: condition met
